# Tested on: 653999-131-R-J2-PDC complex spheroids, growth inhibition;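 note: spheroids exposed to the agents for seven days before the readout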
# EXPERIMENT_DESCRIPTION: Anticancer human tumor 653999-131-R-J2-PDC patient-derived lung adenocarcinoma cell line growth inhibition [RAS]; active = viability on the fitted dose curve at most 10% of control; inactive = the rest
# CONDITION_SUMMARY: second compound 0.03 µM; first compound 10 µM
Outcome codes: active, inactive

{"columns": ["MOLECULE", "LABEL_CLASS"],
 "data": [
  ["CC(=O)OC12COC1CC(O)C1(C)C(=O)C(O)C3=C(C)C(OC(=O)C(O)C(NC(=O)OC(C)(C)C)c4ccccc4)CC(O)(C(OC(=O)c4ccccc4)C21)C3(C)C (configuration not stated) + CCn1c(-c2cc(N3CCN(C)CC3)cnc2C(C)OC)c2c3cc(ccc31)-c1csc(n1)CC(NC(=O)C1CC1C)C(=O)N1CCCC(N1)C(=O)OCC(C)(C)C2", "inactive"],
  ["CCC(CC)c1cc(NC2CCC(N)C2)n2nccc2n1 (configuration not stated) + CCn1c(-c2cc(N3CCN(C)CC3)cnc2C(C)OC)c2c3cc(ccc31)-c1csc(n1)CC(NC(=O)C1CC1C)C(=O)N1CCCC(N1)C(=O)OCC(C)(C)C2", "inactive"],
  ["CC(Nc1ccc2c(c1)OCCn1cc(N3C(=O)OCC3C(F)F)nc1-2)C(N)=O (configuration not stated) + CCn1c(-c2cc(N3CCN(C)CC3)cnc2C(C)OC)c2c3cc(ccc31)-c1csc(n1)CC(NC(=O)C1CC1C)C(=O)N1CCCC(N1)C(=O)OCC(C)(C)C2", "active"],
  ["C[C@@H](NC(=O)c1ncnc(N)c1Cl)c1ncc(C(=O)Nc2cc(C(F)(F)F)c(Cl)cn2)s1 + CCn1c(-c2cccnc2C(C)OC)c2c3cc(ccc31)N1CCOC(CC(NC(=O)C(C(C)C)N(C)C(=O)C3(F)CCN(C(=O)C#CC(C)(C)N(C)C)CC3)C(=O)N3CCCC(N3)C(=O)OCC(C)(C)C2)C1", "inactive"],
  ["Cc1nc(N2CCC3(CC2)COC(C)C3N)c(CO)nc1Sc1ccnc(N)c1Cl (configuration not stated) + CCn1c(-c2cc(N3CCN(C)CC3)cnc2C(C)OC)c2c3cc(ccc31)-c1csc(n1)CC(NC(=O)C1CC1C)C(=O)N1CCCC(N1)C(=O)OCC(C)(C)C2", "inactive"],
  ["CC(C)NCC(C(=O)N1CCN(c2ncnc3c2C(C)CC3O)CC1)c1ccc(Cl)cc1 (configuration not stated) + CCn1c(-c2cccnc2C(C)OC)c2c3cc(ccc31)N1CCOC(CC(NC(=O)C(C(C)C)N(C)C(=O)C3(F)CCN(C(=O)C#CC(C)(C)N(C)C)CC3)C(=O)N3CCCC(N3)C(=O)OCC(C)(C)C2)C1", "inactive"],
  ["CC1(O)CCCC1n1c(=O)c(C(F)F)cc2cnc(NC3CCN(S(C)(=O)=O)CC3)nc21 (configuration not stated) + CCn1c(-c2cccnc2C(C)OC)c2c3cc(ccc31)N1CCOC(CC(NC(=O)C(C(C)C)N(C)C(=O)C3(F)CCN(C(=O)C#CC(C)(C)N(C)C)CC3)C(=O)N3CCCC(N3)C(=O)OCC(C)(C)C2)C1", "inactive"]
]}
